# Test system: S. aureus ATCC 29213
# Assay Text: MIC, broth microdilution
# Assay type: cell-based
# Experimental Context: Staphylococcus aureus, ATCC29213, 24 h, 24-hour incubation, MHB; read-out: MIC90 S. aureus ATCC 29213
Measured Parameter: MIC90

[
  {
    "Molecule": "CC(C)=CCOc1cc(OCCCCCCCCNC(=N)N)cc2oc3cc(OCCCCCCCCNC(=N)N)ccc3c(=O)c12",
    "Observed Value": "0.39 µg/mL"
  }
]

Give MIC90; test system S. aureus ATCC 29213; compound CCN(CC)CCCOc1ccc2c(=O)c3c(OCC=C(C)C)cc(OCCCN(CC)CC)cc3oc2c1
6.25 µg/mL

Give MIC90; test system S. aureus ATCC 29213; compound CC(C)=CCOc1cc(OCCCCN)cc2oc3cc(OCCCCN)ccc3c(=O)c12
3.12 µg/mL

Give MIC90; test system S. aureus ATCC 29213; compound CCN(CC)CCCCCCCCOc1ccc2c(=O)c3c(OCC=C(C)C)cc(OCCCCCCCCN(CC)CC)cc3oc2c1
0.39 µg/mL

Give MIC90; test system S. aureus ATCC 29213; compound CNCCCOc1ccc2c(=O)c3c(OCCCC(F)(F)F)cc(OCCCNC)cc3oc2c1
50 µg/mL

Give MIC90; test system S. aureus ATCC 29213; compound CC(C)=CCOc1cc(OCCCNCCN(CCN)CCN)cc2oc3cc(OCCCNCCN(CCN)CCN)ccc3c(=O)c12
6.25 µg/mL

Give MIC90; test system S. aureus ATCC 29213; compound CNCCCCOc1ccc2c(=O)c3c(OCC=C(C)C)cc(OCCCCNC)cc3oc2c1
6.25 µg/mL

Give MIC90; test system S. aureus ATCC 29213; compound CCN(CC)CCCCOc1ccc2c(=O)c3c(OCC=C(C)C)cc(OCCCCN(CC)CC)cc3oc2c1
3.12 µg/mL

====

Recorded MIC90 by entry
# Test system: S. aureus ATCC 29213
# Assay Text: MIC, broth microdilution
# Format: cell-based
# Experimental Context: Staphylococcus aureus, ATCC29213, 24 h, 24-hour incubation, MHB; read-out: MIC90 S. aureus ATCC 29213
Enter your answer as a number in µg/mL; do not include the unit.

[
  {
    "Molecule": "CNCCCCCCOc1ccc2c(=O)c3c(OCC=C(C)C)cc(OCCCCCCNC)cc3oc2c1",
    "MIC90, µg/mL": 1.56
  },
  {
    "Molecule": "COc1cc(OCCCNC(=N)N)cc2oc3cc(OCCCNC(=N)N)ccc3c(=O)c12",
    "MIC90, µg/mL": 6.25
  },
  {
    "Molecule": "[H]/N=C(/N)NCCCOc1ccc2c(=O)c3c(OCC=C(C)CCC=C(C)C)cc(OCCCNC(=N)N)cc3oc2c1",
    "MIC90, µg/mL": 0.78
  }
]

State, in one line, measured MIC90 of CC(C)=CCOc1cc(OCCCN2CCCC2)cc2oc3cc(OCCCN4CCCC4)ccc3c(=O)c12
6.25

====

# Assay Text: Plasma pharmacokinetic study
# Assay type: in vivo, CD-1 mice
# Experimental Context: male, CD-1, mouse, plasma; IV 5 mg/kg
Measured Parameter: AUC(0-inf) (ng·h/mL)
Enter your answer as a number in ng·h/mL; do not include the unit.

State, in one line, measured AUC(0-inf) of CC(C)=CCOc1cc(OCCCNC(=N)N)cc2oc3cc(OCCCNC(=N)N)ccc3c(=O)c12
8610

====

# Assay Text: Plasma pharmacokinetic study
# Type: in vivo, CD-1 mice
# Experimental Context: male, CD-1, mouse, plasma; IV 5 mg/kg, 1 hr
Measured Parameter: concentration at 1 h (ng/mL)
Enter your answer as a number in ng/mL; do not include the unit.

State, in one line, measured concentration at 1 h of CC(C)=CCOc1cc(OCCCNC(=N)N)cc2oc3cc(OCCCNC(=N)N)ccc3c(=O)c12
1770

====

# Assay Text: Plasma pharmacokinetic study
# Format: in vivo, CD-1 mice
# Experimental Context: male, CD-1, mouse, plasma; IV 5 mg/kg; read-out: Vss
Measured Parameter: Vd
Reply with the number, then its unit.

State, in one line, measured Vd of CC(C)=CCOc1cc(OCCCNC(=N)N)cc2oc3cc(OCCCNC(=N)N)ccc3c(=O)c12
0.244 L/kg

====

Recorded MIC90 by entry
# Tested on: MRSA NCTC 10442
# Assay Text: MIC, broth microdilution
# Type: cell-based
# Experimental Context: Staphylococcus aureus; 24-hour incubation, MHB; read-out: MIC90 MRSA NCTC 10442
Enter your answer as a number in µg/mL; do not include the unit.

[
  {
    "Molecule": "CC(C)=CCOc1cc(OCCCN2CCCC2)cc2oc3cc(OCCCN4CCCC4)ccc3c(=O)c12",
    "MIC90 / µg/mL": 6.25
  },
  {
    "Molecule": "CCN(CC)CCCCCCOc1ccc2c(=O)c3c(OCC=C(C)C)cc(OCCCCCCN(CC)CC)cc3oc2c1",
    "MIC90 / µg/mL": 3.12
  }
]

State, in one line, measured MIC90 of CNCCCCOc1ccc2c(=O)c3c(OCC=C(C)C)cc(OCCCCNC)cc3oc2c1
6.25

State, in one line, measured MIC90 of CC(C)=CCOc1cc(OCCCCCCNC(=N)N)cc2oc3cc(OCCCCCCNC(=N)N)ccc3c(=O)c12
0.098

State, in one line, measured MIC90 of CCN(CC)CCCCCCCCCCCCOc1ccc2c(=O)c3c(OCC=C(C)C)cc(OCCCCCCCCCCCCN(CC)CC)cc3oc2c1
3.12

State, in one line, measured MIC90 of COc1cc(OCCCNC(=N)N)cc2oc3cc(OCCCNC(=N)N)ccc3c(=O)c12
6.25

State, in one line, measured MIC90 of CC(C)=CCOc1cc(OCCCCN)cc2oc3cc(OCCCCN)ccc3c(=O)c12
3.12
